test system: NCI/ADR-RES ovarian; assay: NCI tumour cell line growth inhibition, 48 h; in the data active means GI50 below about 0.43 µM; inactive means the rest
Output constraint: value belongs to T = active, F = inactive

>>> print(df.to_string())
                                   compound  classification
0  O=C1COc2c(CCNCCN(C(=O)CCNCCc3ccc(Cl)c(Cl)c3)C3CCCCC3)ccc(O)c2N1               F

Enquiry: I'd appreciate the recorded outcome for `COc1cc(/C=C/C(=O)c2c(-c3ccc(Cl)cc3)nc3sc(C)nn23)cc(OC)c1OC` from this test.
Return: F

Enquiry: I'd appreciate the recorded outcome for `Nc1ccc(N)c2c1C(=O)c1cccc([N+](=O)[O-])c1C2=O` from this test.
Return: F

Enquiry: I'd appreciate the recorded outcome for CC(=O)OC1CCC2(C)C(=CCC3C4CC(CN5CC5)C(=O)C4(C)CCC32)C1 (centres undefined) from this test.
Return: F

Enquiry: I'd appreciate the recorded outcome for `COc1cc(-c2nn(-c3cccc(NC(=O)c4cccc(C(F)(F)F)c4)c3)cc2-c2ccncc2)ccc1Cl` from this test.
Return: F

Enquiry: I'd appreciate the recorded outcome for `COc1cc2c(cc1OCCCN1CCN(CCCn3c4ccccc4c4ccccc43)CC1)N=C[C@@H]1CCCN1C2=O` from this test.
Return: F

Enquiry: I'd appreciate the recorded outcome for `Cc1cc(C2(c3cc(C)c(O)c4ncccc34)OC(=O)c3ccccc32)c2cccnc2c1O` from this test.
Return: T

Enquiry: I'd appreciate the recorded outcome for `ClCc1ccc(Cn2cnc3nc(Cl)nc(Cl)c32)cc1` from this test.
Return: F

Enquiry: I'd appreciate the recorded outcome for `COc1ccc(Cl)cc1Nc1nc(C(F)(F)F)ccc1C(=O)N/N=C/c1ccc(Cl)cc1` from this test.
Return: F
